target: A2 receptor (Rattus norvegicus)
Sequence (P30543 whole entry): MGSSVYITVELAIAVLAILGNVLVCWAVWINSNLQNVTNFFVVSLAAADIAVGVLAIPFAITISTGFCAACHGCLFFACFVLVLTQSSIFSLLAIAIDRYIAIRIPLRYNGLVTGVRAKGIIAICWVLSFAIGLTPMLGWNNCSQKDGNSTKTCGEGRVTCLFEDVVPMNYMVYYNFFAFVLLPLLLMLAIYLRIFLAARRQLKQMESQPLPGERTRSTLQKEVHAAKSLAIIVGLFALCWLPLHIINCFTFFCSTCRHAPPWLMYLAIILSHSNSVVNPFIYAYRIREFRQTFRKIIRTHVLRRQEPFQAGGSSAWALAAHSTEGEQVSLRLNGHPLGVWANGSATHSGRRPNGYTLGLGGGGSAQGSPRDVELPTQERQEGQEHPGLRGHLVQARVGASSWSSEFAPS
measurement-name: pIC50
Scale: negative log10 of molar concentration, which is what pIC50 denotes.

Ask: Print A2 receptor (Rattus norvegicus) pIC50 for CCNC(=O)C(C)Sc1nc(S)c2cnn(-c3ccccc3)c2n1 (stereo not shown) [Compound 7] .
Reply: 6.27

----------
Target sequence: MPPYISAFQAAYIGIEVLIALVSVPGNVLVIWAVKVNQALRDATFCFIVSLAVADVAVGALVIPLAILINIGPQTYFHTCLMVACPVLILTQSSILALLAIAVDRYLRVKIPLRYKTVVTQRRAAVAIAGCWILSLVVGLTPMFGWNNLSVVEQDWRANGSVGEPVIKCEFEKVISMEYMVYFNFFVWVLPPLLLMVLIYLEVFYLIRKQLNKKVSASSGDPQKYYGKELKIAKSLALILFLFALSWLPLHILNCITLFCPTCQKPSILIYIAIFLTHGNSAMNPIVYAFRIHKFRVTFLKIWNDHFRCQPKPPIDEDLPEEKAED
Collected IC50 values appear next to each entry.
Quick reminder: number only, in nM, skip the unit.

Example results:
CCNC(=O)C(C)Sc1nc(S)c2cnn(-c3ccccc3)c2n1 (stereo not drawn)
490
CCNC(=O)C(C)Sc1nc(N)c2cnn(-c3ccccc3)c2n1 (stereo not drawn)
17

Ask: Look up and state reported IC50 for CCC(Sc1nc2c(cnn2-c2ccccc2)c(=S)[nH]1)C(N)=O (stereo not drawn)
Reply: 492
